Values from patent US10988477B2

# pKi per entry
# measured_on: GCN2 kinase (Homo sapiens)
# experiment_description: GCN2 enzyme inhibition assay (Transcreener ADP2 fluorescence polarization)
# Type: biochemical
# assay_setup: compounds of Formula II; 280 μM ATP, 4 nM GCN2 kinase
pKi: −log10 of the molar value.

Example molecules with recorded pKi:
>  <molecule>
CS(C)(=O)=NC1CC(C(F)(F)F)CN(c2cc(-c3cnc4ccc(C(F)F)nn34)ncn2)C1 (stereo not shown) [II-695]

>  <measured_on>
GCN2 kinase (Homo sapiens)

>  <pKi>
> 8.00

$$$$
>  <molecule>
CCC1C(CNS(C)(=O)=O)CCCN1c1cc(-c2cnc3ccc(C(F)F)nn23)ncn1 (stereo not shown) [II-391]

>  <measured_on>
GCN2 kinase (Homo sapiens)

>  <pKi>
> 8.00

$$$$
>  <molecule>
CC1C(CNS(C)(=O)=O)NCCN1c1cc(-c2cnc3ccc(C(F)(F)F)nn23)ncn1 (stereo not shown)

>  <measured_on>
GCN2 kinase (Homo sapiens)

>  <pKi>
> 8.00

$$$$

Okay, next one:
Consider the molecule shown here: CC1CN(c2cc(-c3cnc4ccc(C(F)F)nn34)ncn2)CC(CO)C1(F)F (stereo not shown) [II-624] What is its recorded pKi?
6.00 to 8.00

* * *

# measured_on: intracellular GCN2 (phosphorylation of the GCN2 substrate eIF2α) (Homo sapiens, UniProt Q9P2K8)
# Sequence (Q9P2K8 whole entry): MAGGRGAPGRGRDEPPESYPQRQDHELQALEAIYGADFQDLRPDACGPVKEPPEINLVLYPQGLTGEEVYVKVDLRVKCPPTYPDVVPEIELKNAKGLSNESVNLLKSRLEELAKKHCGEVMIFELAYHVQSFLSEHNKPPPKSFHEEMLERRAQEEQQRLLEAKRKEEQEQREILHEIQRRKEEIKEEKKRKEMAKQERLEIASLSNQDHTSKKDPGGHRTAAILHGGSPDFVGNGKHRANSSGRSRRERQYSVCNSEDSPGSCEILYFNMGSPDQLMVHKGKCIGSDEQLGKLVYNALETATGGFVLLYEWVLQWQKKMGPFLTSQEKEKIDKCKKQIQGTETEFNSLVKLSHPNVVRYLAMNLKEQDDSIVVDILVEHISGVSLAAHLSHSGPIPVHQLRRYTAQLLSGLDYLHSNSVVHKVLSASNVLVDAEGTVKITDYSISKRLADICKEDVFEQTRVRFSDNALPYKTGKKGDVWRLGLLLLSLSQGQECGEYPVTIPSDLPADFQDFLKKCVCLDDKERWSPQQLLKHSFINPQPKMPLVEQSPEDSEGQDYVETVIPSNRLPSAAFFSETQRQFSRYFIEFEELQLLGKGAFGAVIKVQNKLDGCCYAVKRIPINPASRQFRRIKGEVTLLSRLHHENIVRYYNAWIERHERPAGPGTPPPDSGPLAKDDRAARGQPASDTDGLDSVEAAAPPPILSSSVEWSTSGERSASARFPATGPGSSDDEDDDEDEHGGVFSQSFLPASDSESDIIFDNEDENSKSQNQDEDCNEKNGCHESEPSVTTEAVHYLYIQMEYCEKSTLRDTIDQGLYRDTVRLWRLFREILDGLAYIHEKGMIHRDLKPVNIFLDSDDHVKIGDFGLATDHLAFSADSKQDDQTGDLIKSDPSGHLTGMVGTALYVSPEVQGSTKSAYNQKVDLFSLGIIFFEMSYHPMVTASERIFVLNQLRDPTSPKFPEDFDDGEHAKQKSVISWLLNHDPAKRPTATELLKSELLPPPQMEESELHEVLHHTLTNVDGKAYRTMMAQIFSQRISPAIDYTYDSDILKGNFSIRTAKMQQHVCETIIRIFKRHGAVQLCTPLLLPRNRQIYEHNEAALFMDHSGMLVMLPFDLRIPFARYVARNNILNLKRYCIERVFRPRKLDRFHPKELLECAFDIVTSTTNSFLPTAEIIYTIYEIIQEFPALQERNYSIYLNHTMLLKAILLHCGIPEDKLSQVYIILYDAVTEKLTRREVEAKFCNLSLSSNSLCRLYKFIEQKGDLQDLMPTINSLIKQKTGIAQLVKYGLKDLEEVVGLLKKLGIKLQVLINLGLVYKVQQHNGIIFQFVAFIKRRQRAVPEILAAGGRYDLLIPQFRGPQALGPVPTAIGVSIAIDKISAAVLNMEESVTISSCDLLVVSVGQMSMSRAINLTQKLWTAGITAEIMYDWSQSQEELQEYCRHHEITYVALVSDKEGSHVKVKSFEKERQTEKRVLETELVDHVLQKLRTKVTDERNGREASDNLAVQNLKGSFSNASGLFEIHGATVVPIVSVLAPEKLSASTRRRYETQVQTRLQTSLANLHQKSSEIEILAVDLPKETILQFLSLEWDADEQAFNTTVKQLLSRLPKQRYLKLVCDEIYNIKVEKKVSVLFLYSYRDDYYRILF
# experiment_description: GCN2 cellular inhibition assay (AlphaScreen SureFire P-eIF2α Ser51, borrelidin-treated U2OS cells)
# Type: cell-based
# assay_setup: compounds of Formula II; biomarker assay, phosphorylated eIF2α Ser51 in borrelidin-treated U2OS cells
pIC50: −log10 of the molar value.
measured_metric: pIC50

Example compounds with recorded pIC50:
>  <compound>
O=C(NCCO)N1CCC(c2cc(-c3cnc4ccc(C(F)F)nn34)ncn2)C1 (stereo not drawn) [II-254]

>  <measured_metric>
pIC50

>  <recorded_value>
< 5.30

$$$$
>  <compound>
FC(F)c1ccc2ncc(-c3cc(N4CCOC5CC54)ncn3)n2n1 (stereo not drawn) [II-301]

>  <measured_metric>
pIC50

>  <recorded_value>
5.30 to 6.30

$$$$
>  <compound>
CS(=O)(=O)NCC1CCCN(c2cc(-c3cnc4ccc(C(F)F)nn34)cc(F)n2)C1 (stereo not drawn) [II-122]

>  <measured_metric>
pIC50

>  <recorded_value>
5.30 to 6.30

$$$$
>  <compound>
Clc1ccc2ncc(-c3ccnc(N4CCOCC4)c3)n2n1 [II-194]

>  <measured_metric>
pIC50

>  <recorded_value>
< 5.30

$$$$
>  <compound>
OCC1CN(c2cc(-c3cnc4ccc(C(F)F)nn34)ncn2)CC2(COC2)O1 (stereo not drawn) [II-343]

>  <measured_metric>
pIC50

>  <recorded_value>
< 5.30

$$$$

Consider the compound shown here: CC1CN(c2cc(-c3cnc4ccc(C(F)F)nn34)ncn2)CC(CNS(C)(=O)=O)=C1F (stereo not drawn) [II-537] What is its recorded pIC50?
> 6.30

Here is the next compound: CS(=O)(=O)NC[C@@H]1CCCN(c2cc(-c3cnc4ccc(C(F)F)nn34)ccn2)C1 [II-155]
5.30 to 6.30

Here is the next compound: CC(NS(C)(=O)=O)C1CN(c2cc(-c3cnc4ccc(C(F)F)nn34)ncn2)CCN1C (stereo not drawn) [II-473]
< 5.30

Here is the next compound: CS(=O)(=O)N1CCC(c2cc(-c3cnc4ccc(C(F)F)nn34)ncn2)C1 (stereo not drawn) [II-250]
< 5.30

* * *

# measured_on: intracellular GCN2 (phosphorylation of the GCN2 substrate eIF2α) (Homo sapiens)
# experiment_description: GCN2 cellular inhibition assay (AlphaScreen SureFire P-eIF2α Ser51, borrelidin-treated U2OS cells)
# Assay type: cell-based
# assay_setup: compounds of Formula II; biomarker assay, phosphorylated eIF2α Ser51 in borrelidin-treated U2OS cells
measured_metric: IC50

Example compounds with recorded IC50:
>  <compound>
NC(=O)C1CCN(c2cc(-c3cnc4ccc(C(F)F)nn34)ncn2)C1 (stereo not shown)

>  <measured_on>
intracellular GCN2 (phosphorylation of the GCN2 substrate eIF2α) (Homo sapiens)

>  <recorded_value>
> 5 µM

$$$$
>  <compound>
CC(C)(NS(C)(=O)=O)C1CCCN(c2cc(-c3cnc4ccc(C(F)F)nn34)ccn2)C1 (stereo not shown)

>  <measured_on>
intracellular GCN2 (phosphorylation of the GCN2 substrate eIF2α) (Homo sapiens)

>  <recorded_value>
> 5 µM

$$$$
>  <compound>
CS(=O)(=O)N1CC2(CN(c3cc(-c4cnc5ccc(C(F)F)nn45)ccn3)CCO2)C1

>  <measured_on>
intracellular GCN2 (phosphorylation of the GCN2 substrate eIF2α) (Homo sapiens)

>  <recorded_value>
> 5 µM

$$$$

Okay, next one:
Consider the compound shown here: `Cc1noc([C@@H]2CN(c3cc(-c4cnc5ccc(C(F)(F)F)nn45)ccn3)C[C@H](C)O2)n1` What is its recorded IC50?
< 0.5 µM

* * *

# measured_on: intracellular GCN2 (phosphorylation of the GCN2 substrate eIF2α) (Homo sapiens)
# experiment_description: GCN2 cellular inhibition assay (AlphaScreen SureFire P-eIF2α Ser51, borrelidin-treated U2OS cells)
# Assay type: cell-based
# assay_setup: compounds of Formula IV; biomarker assay, phosphorylated eIF2α Ser51 in borrelidin-treated U2OS cells
# IC50 per entry

>  <compound>
NC(=O)c1cn2c(-c3cccc(N4CCCCC4)n3)cnc2cn1

>  <IC50>
> 5 µM

$$$$
>  <compound>
CC(=O)N1CCN(c2ccnc(-c3cnc4cnc(Br)cn34)n2)CC1

>  <IC50>
0.5 to 5 µM

$$$$
>  <compound>
CP(C)(=O)C1CC(c2cn[nH]c2)CN(c2ccnc(-c3cnc4cnc(C(F)(F)F)cn34)n2)C1 (stereo not drawn) [IV-591]

>  <IC50>
> 5 µM

$$$$
>  <compound>
CC1CN(c2ccnc(-c3cnc4cnc(C(F)F)cn34)n2)CC(C)O1 (stereo not drawn)

>  <IC50>
> 5 µM

$$$$
>  <compound>
C[C@@H]1CN(c2ccnc(-c3cnc4cnc(Cl)cn34)n2)C[C@H](c2cn[nH]c2)N1 (racemic)

>  <IC50>
0.5 to 5 µM

$$$$
>  <compound>
CC(C)(O)C1CC(c2cn[nH]c2)CN(c2ccnc(-c3cnc4cnc(C(F)(F)F)cn34)n2)C1 (single isomer, unassigned) [IV-683]

>  <IC50>
0.5 to 5 µM

$$$$
>  <compound>
CC1CN(c2ccnc(-c3cnc4cnc(C(F)(F)F)cn34)n2)CC(c2cn[nH]c2Cl)N1 (single isomer, unassigned) [IV-651]

>  <IC50>
< 0.5 µM

$$$$
>  <compound>
Cc1noc([C@@H]2CN(c3ccnc(-c4cnc5cnc(C(F)(F)F)cn45)n3)C[C@H](C)O2)n1

>  <IC50>
> 5 µM

$$$$
>  <compound>
O=C1NCCC12CCN(c1ccnc(-c3cnc4cnc(C(F)F)cn34)n1)C2 (stereo not drawn)

>  <IC50>
> 5 µM

$$$$
>  <compound>
CC1CN(c2ccnc(-c3cnc4cnc(Cl)cn34)n2)C(C)C(c2c[nH]cn2)N1 (stereo not drawn)

>  <IC50>
0.5 to 5 µM

$$$$

Okay, next one:
Consider the compound shown here: CP(C)(=O)C1CC(c2cn[nH]c2)CN(c2ccnc(-c3cnc4cnc(C(F)(F)F)cn34)n2)C1 (single isomer, unassigned) [IV-592] What is its recorded IC50?
> 5 µM

* * *

# pIC50 per entry
# measured_on: intracellular GCN2 (phosphorylation of the GCN2 substrate eIF2α) (Homo sapiens, UniProt Q9P2K8)
# experiment_description: GCN2 cellular inhibition assay (AlphaScreen SureFire P-eIF2α Ser51, borrelidin-treated U2OS cells)
# Assay type: cell-based
# assay_setup: compounds of Formula II; biomarker assay, phosphorylated eIF2α Ser51 in borrelidin-treated U2OS cells
pIC50: −log10 of the molar value.

Example molecules with recorded pIC50:
>  <molecule>
CS(=O)(=O)NCC1CN(c2cc(-c3cnc4ccc(C(F)F)nn34)ncn2)CC2(CC2)O1 (centres unmarked) [II-383]

>  <pIC50>
5.30 to 6.30

$$$$
>  <molecule>
FC(F)(F)c1ccc2ncc(-c3ccnc(N4CCCC(c5c[nH]cn5)C4)c3)n2n1 (centres unmarked) [II-741]

>  <pIC50>
> 6.30

$$$$
>  <molecule>
O=C(NC1CC1)NC1CCN(c2cc(-c3cnc4ccc(C(F)F)nn34)ncn2)C1 (centres unmarked)

>  <pIC50>
< 5.30

$$$$
>  <molecule>
CN1CCN(c2cc(-c3cnc4ccc(C(F)F)nn34)ccn2)CC1CNS(C)(=O)=O (centres unmarked)

>  <pIC50>
5.30 to 6.30

$$$$
>  <molecule>
CC1CN(c2ccnc(-c3cnc4ccc(C(F)F)nn34)c2)CC(CNS(C)(=O)=O)O1 (centres unmarked)

>  <pIC50>
> 6.30

$$$$

Consider the molecule shown here: CC1(O)CC(CNS(C)(=O)=O)CN(c2cc(-c3cnc4ccc(C(F)F)nn34)ncn2)C1 (single isomer, unassigned) [II-6] What is its recorded pIC50?
5.30 to 6.30

Here is the next molecule: CC1C(CO)OCCN1c1cc(-c2cnc3ccc(C(F)F)nn23)ncn1 (centres unmarked) [II-342]
5.30 to 6.30

Here is the next molecule: CC1(NS(C)(=O)=O)CCCN(c2cc(-c3cnc4ccc(C(F)F)nn34)ncn2)C1 (centres unmarked) [II-446]
< 5.30

Here is the next molecule: CC1C(CNS(C)(=O)=O)OCCN1c1cc(-c2cnc3ccc(C(F)F)nn23)ncn1 (centres unmarked) [II-345]
> 6.30

Here is the next molecule: NS(=O)(=O)C1CCCN(c2cc(-c3cnc4ccc(C(F)F)nn34)ncn2)C1 (centres unmarked)
5.30 to 6.30

Here is the next molecule: FC(F)(F)c1ccc2ncc(-c3ccnc(N4CCOC(c5cn[nH]c5)C4)c3)n2n1 (single isomer, unassigned) [II-230]
> 6.30
